# experimental-target: NADPH oxidase 2 (Homo sapiens)
# measurement-description: NOX2-dependent H2O2 signal modulators, primary screen, NOX inhibitor project, cell-based, HEK293-NOX2, PMA-stimulated, Amplex Red fluorescence (AID 1159); also: test concentration not given here
# experimental-conditions: 45 min, higher = more signal, called active from +8 up or from −8 down
Each entry below lists one item and its recorded z-score value.

compound: COc1ccc([C@H]2C[C@H]3C(Br)=C[C@@H]2C(=O)[C@]32CO2)cc1
experimental-target: NADPH oxidase 2 (Homo sapiens)
z-score: -0.0817
//
compound: CN(C)CCCC[C@@H]1NC(=O)[C@H]2C[C@@H](C(=O)NCCCCCNC(=O)CS)[C@@H](c3cccc(OCCO)c3)N2C1=O
experimental-target: NADPH oxidase 2 (Homo sapiens)
z-score: 1.76
//
compound: O=C1O[C@H](c2ccccc2)[C@H](c2ccccc2)N2[C@H]1[C@@H](C(=O)Nc1nc3ccccc3s1)[C@]1(C(=O)Nc3ccc(C#CCCO)cc31)[C@H]2c1ccc(OCCO)cc1
experimental-target: NADPH oxidase 2 (Homo sapiens)
z-score: 1.18
//
compound: CCCCCC1=C2CNC(CCC)(C(=O)OC)C=C2C(C)C1=O (configuration not stated)
experimental-target: NADPH oxidase 2 (Homo sapiens)
z-score: 0.0917
//
compound: COc1ccc(CCN2C(=O)[C@@]3(c4ccc([N+](=O)[O-])cc4)CC(=O)N(C4CCCCC4)[C@@H]3c3ccc(CO)cc32)cc1
experimental-target: NADPH oxidase 2 (Homo sapiens)
z-score: -1.47
//
compound: COc1ccc(CCNC(=O)[C@@]2(C)c3ccccc3C(=O)N(Cc3cc(F)cc(C(F)(F)F)c3)[C@H]2c2ccc(CO)cc2)cc1
experimental-target: NADPH oxidase 2 (Homo sapiens)
z-score: -1.38
//
compound: COc1ccc(COC2OC[C@]3(C)[C@H]4C5=C(CN3C(=O)OC(C)(C)C)[C@H](C)C(CO)C(CO)C5CC[C@@H]24)cc1 (some centres not stated)
experimental-target: NADPH oxidase 2 (Homo sapiens)
z-score: -0.543
